- System: Swiss albino mice
- protocolNotes: Acute toxicity
- Type: in vivo
- measurementSetup: dosage 100 mg/kg, i.p., observed 24 h
Listing of entries alongside the reported number of animals dead/tot number of animals tested.

Example entries and their recorded answers appear below.
compound="COc1ccc(-c2nc3ccccc3s2)cc1OCc1nnc(-c2c(OC)cccc2OC)o1 [6n]" result=0/3
compound="COc1ccc(-c2nc3ccccc3s2)cc1OCc1nnc(-c2ccc([N+](=O)[O-])cc2)o1 [6h]" result=0/3
compound="O=C1NC(=O)C(c2ccccc2)(c2ccccc2)N1 [phenytoin, reference compound]" result=0/3
compound="COc1ccc(-c2nc3ccccc3s2)cc1OCc1nnc(-c2ccc(O)cc2)o1 [6l]" result=0/3
compound="COc1ccc(-c2nc3ccccc3s2)cc1OCc1nnc(-c2ccc(Cl)cc2)o1 [6g]" result=0/3

Continue with the compound presented below.
Lab book: number of animals dead/tot number of animals tested of COc1ccc(-c2nc3ccccc3s2)cc1OCc1nnc(-c2ccc(Br)cc2)o1 [6c] noted as 1/3

From: paper PMC9851031
